The reported measurements were obtained from patent US8735553.

molecular target: P3Z chimeric PD-1 receptor (human); assay: cell-based or functional assay
Sequence (chain, as listed by the source mutant limits assumed): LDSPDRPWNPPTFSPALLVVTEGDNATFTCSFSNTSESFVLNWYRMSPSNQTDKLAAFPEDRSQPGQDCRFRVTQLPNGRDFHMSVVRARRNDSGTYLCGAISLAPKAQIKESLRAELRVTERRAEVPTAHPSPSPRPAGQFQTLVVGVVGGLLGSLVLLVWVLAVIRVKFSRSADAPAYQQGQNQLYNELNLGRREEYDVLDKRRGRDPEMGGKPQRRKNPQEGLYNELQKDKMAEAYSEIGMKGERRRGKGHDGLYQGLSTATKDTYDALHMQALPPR

binder	IL-2 release in HuT78/P3Z, EC50
Fab hu317-1_Vh / hu317-1_Vκ (Fab, V domains shown) VH: QVQLQESGPGLVKPSETLSLTCTVSGFSLTSYGVHWIRQPPGKGLEWLGVIWAGGSTNYNPSLKSRLTISKDNSKSQVSLKMSSVTAADTAVYYCARAYGNYWYIDVWGQGTTVTVSS VL: DIVMTQSPDSLAVSLGERATINCKASQSVSNDVAWYQQKPGQPPKLLINYAFHRFTGVPDRFSGSGYGTDFTLTISSLQAEDVAVYYCHQAYSSPYTFGGGTKLEIK	0.3 µg/mL
Fab hu317-2_S76N / hu317-1_Vκ (Fab, V domains shown) VH: QVQLQESGPGLVKPSETLSLTCTVSGFSLTSYGVHWIRQPPGKGLEWLGVIWAGGSTNYNPSLKSRLTISKDNSKNQVSLKMSSVTAADTAVYYCARAYGNYWYIDVWGQGTTVTVSS VL: DIVMTQSPDSLAVSLGERATINCKASQSVSNDVAWYQQKPGQPPKLLINYAFHRFTGVPDRFSGSGYGTDFTLTISSLQAEDVAVYYCHQAYSSPYTFGGGTKLEIK	0.28 µg/mL
Fab hu317-1_Vh / HU317-2_G100Q (Fab, V domains shown) VH: QVQLQESGPGLVKPSETLSLTCTVSGFSLTSYGVHWIRQPPGKGLEWLGVIWAGGSTNYNPSLKSRLTISKDNSKSQVSLKMSSVTAADTAVYYCARAYGNYWYIDVWGQGTTVTVSS VL: DIVMTQSPDSLAVSLGERATINCKASQSVSNDVAWYQQKPGQPPKLLINYAFHRFTGVPDRFSGSGYGTDFTLTISSLQAEDVAVYYCHQAYSSPYTFGQGTKLEIK	0.27 µg/mL
Fab hu317-2_M82L / hu317-1_Vκ (Fab, V domains shown) VH: QVQLQESGPGLVKPSETLSLTCTVSGFSLTSYGVHWIRQPPGKGLEWLGVIWAGGSTNYNPSLKSRLTISKDNSKSQVSLKLSSVTAADTAVYYCARAYGNYWYIDVWGQGTTVTVSS VL: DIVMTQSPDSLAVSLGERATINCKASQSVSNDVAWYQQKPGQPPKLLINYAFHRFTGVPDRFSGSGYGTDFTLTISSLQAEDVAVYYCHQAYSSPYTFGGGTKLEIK	0.27 µg/mL
